- systemUnderTest: rat EP4 receptor (Rattus norvegicus, UniProt P43114)
- Construct: cells seeded on STEP plates
- Sequence (P43114 whole entry): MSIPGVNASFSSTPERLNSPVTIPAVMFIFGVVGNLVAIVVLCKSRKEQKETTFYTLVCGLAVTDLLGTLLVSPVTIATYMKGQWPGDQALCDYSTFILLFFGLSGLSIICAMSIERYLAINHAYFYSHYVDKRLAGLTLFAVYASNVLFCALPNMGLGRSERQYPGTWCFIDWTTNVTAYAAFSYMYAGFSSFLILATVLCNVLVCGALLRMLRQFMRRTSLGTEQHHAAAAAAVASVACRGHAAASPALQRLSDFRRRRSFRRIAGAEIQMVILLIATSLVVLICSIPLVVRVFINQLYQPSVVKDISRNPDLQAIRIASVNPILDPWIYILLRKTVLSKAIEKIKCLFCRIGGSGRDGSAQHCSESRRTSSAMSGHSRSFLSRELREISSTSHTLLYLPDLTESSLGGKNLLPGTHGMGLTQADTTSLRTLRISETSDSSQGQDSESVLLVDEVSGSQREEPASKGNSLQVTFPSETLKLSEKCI
- protocol: SEAP activity assay on EP4 STEP plate
- Assay type: cell-based
- cond: SEAP luminescence, 6-8 hours of stimulation; read-out: STEP cell functional assay EC50 SEAP/EP4
experimentalReadout: EC50 (nM)

Example results:
molecule="CCC#C[C@H](O)/C=C/[C@H]1CCC(=O)N1CCCCCCC(=O)OC (single isomer, unassigned)" experimentalreadout=EC50 recordedresult=6.71
molecule="CCC#CCC(C)[C@@H](O)/C=C/[C@H]1CCC(=O)N1CCCc1ccc(C(=O)O)s1 (stereo partly shown) [Example 17G]" experimentalreadout=EC50 recordedresult=18.4
molecule="CC#CCC(C)[C@H](O)/C=C/[C@H]1CCC(=O)N1CCCCCCC(=O)O (mixture of isomers)" experimentalreadout=EC50 recordedresult=0.67

A = O=C(O)CCCCCCN1C(=O)CC[C@@H]1/C=C/[C@@H](O)CCC#Cc1ccccc1
B = CCCC#CCC(C)[C@@H](O)/C=C/[C@H]1CCC(=O)N1CCCCCCC(=O)OC (mixture of isomers)
C = CCC#CCC(C)[C@H](O)/C=C/[C@H]1CCC(=O)N1CCCCCCC(=O)O (mixture of isomers)
Give the ascending ranking of the items by reported EC50. # list labels per requested ordering
C, A, B
(C: 0.064 nM, A: 111 nM, B: 223 nM)

====

- systemUnderTest: rat EP2 receptor (Rattus norvegicus, UniProt Q62928)
- Construct: cells seeded on STEP plates
- Sequence (Q62928 whole entry): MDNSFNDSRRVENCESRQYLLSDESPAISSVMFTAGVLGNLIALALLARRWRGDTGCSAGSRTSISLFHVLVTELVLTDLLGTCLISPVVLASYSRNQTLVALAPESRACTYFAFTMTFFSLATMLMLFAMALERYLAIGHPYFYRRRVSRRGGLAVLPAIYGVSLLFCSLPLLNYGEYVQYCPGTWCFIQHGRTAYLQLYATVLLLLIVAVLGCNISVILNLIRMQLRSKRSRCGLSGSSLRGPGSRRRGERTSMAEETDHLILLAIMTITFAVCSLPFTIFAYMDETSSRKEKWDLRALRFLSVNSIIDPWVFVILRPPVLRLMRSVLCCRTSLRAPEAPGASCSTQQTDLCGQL
- protocol: SEAP activity assay on EP2 STEP plate
- cond: SEAP luminescence, 6-8 hours of stimulation; read-out: STEP cell functional assay EC50 SEAP/EP2
pEC50: −log10 of the molar value.
experimentalReadout: pEC50

Example results:
compound="CCCC#CCC(C)[C@H](O)/C=C/[C@H]1CCC(=O)N1CCCCCCC(=O)O (mixture of isomers)" systemundertest="rat EP2 receptor (Rattus norvegicus, UniProt Q62928)" recordedresult=5.65
compound="CC#CCC(C)[C@H](O)/C=C/[C@H]1CCC(=O)N1CCc1ccc(C(=O)OC)cc1 (mixture of isomers)" systemundertest="rat EP2 receptor (Rattus norvegicus, UniProt Q62928)" recordedresult=6.44
compound=CC#CC[C@H](C)[C@H](O)/C=C/[C@H]1CCC(=O)N1CCCCCCC(=O)O systemundertest="rat EP2 receptor (Rattus norvegicus, UniProt Q62928)" recordedresult=6.10

P = CCC#CCC(C)[C@@H](O)/C=C/[C@H]1CCC(=O)N1CCCCCCC(=O)O (mixture of isomers)
Q = CCC#CC[C@H](C)[C@H](O)/C=C/[C@H]1CCC(=O)N1CCCc1ccc(C(=O)O)s1 [Example 17D]
Lower value for measured pEC50? Options: P , Q Select an item and report its label.
Q

====

- systemUnderTest: Human Prostanoid EP4 Receptor (Homo sapiens)
- Sequence (P35408 whole entry): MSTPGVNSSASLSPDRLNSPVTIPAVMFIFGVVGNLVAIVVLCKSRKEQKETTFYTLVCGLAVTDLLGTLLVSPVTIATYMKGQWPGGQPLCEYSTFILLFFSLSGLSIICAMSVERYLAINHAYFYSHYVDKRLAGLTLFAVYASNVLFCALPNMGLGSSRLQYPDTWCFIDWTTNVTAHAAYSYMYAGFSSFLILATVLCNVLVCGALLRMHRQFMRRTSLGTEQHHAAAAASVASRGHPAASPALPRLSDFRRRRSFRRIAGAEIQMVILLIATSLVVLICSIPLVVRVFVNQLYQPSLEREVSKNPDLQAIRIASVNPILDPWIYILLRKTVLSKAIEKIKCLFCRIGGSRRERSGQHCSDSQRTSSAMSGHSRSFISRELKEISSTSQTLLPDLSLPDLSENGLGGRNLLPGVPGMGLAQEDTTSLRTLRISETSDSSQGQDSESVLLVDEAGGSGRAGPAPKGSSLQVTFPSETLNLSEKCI
- protocol: Radioligand binding assay, agonist site of human prostanoid EP4 receptor in transfected HEK-293 cells
- cond: read-out: hEP4 receptor binding Ki
experimentalReadout: Ki (nM)

compound=CC#CC[C@@H](C)[C@H](O)/C=C/[C@H]1CCC(=O)N1CCCCCCC(=O)O systemundertest="Human Prostanoid EP4 Receptor (Homo sapiens)" recordedresult=6.9
compound="CCC#CCC(C)[C@H](O)/C=C/[C@H]1CCC(=O)N1CCCCCCC(=O)O (mixture of isomers)" systemundertest="Human Prostanoid EP4 Receptor (Homo sapiens)" recordedresult=1.5
compound=CC#CC[C@H](C)[C@H](O)/C=C/[C@H]1CCC(=O)N1CCCCCCC(=O)O systemundertest="Human Prostanoid EP4 Receptor (Homo sapiens)" recordedresult=1.5
compound="CCC#CC[C@H](C)[C@H](O)/C=C/[C@H]1CCC(=O)N1CCCc1ccc(C(=O)O)s1 [Example 17D]" systemundertest="Human Prostanoid EP4 Receptor (Homo sapiens)" recordedresult=2.3

I = CC#CCC(C)[C@H](O)/C=C/[C@H]1CCC(=O)N1CCc1ccc(C(=O)O)cc1 (mixture of isomers)
II = CCC#CC[C@H](C)[C@H](O)/C=C/[C@H]1CCC(=O)N1CCc1ccc(C(=O)O)cc1
Lower value for measured Ki? Options: I , II Select an item and report its label.
II
(II: 0.25 nM, I: 0.47 nM)
